Taken from the antibiotic and cytotoxicity screens of Wong et al. (2023).

# System: HSkMC
# ASSAY DETAILS: cytotoxicity call (relative viability < 0.9)
# ASSAY CONDITIONS: 10 µM
The whole screen tested about 39,000 compounds, of which about 1,500 (3.8%) were called active. This excerpt belongs to a sample that is enriched for actives.

| SMILES CODE | SYSTEM UNDER TEST | cytotoxicity call |
| --- | --- | --- |
| COc1ccc([Si](C)(C)[C@H]2[C@H](CC(=O)N(CCO)Cc3ccccc3)O[C@@]3(C(=O)N(Cc4cccc(N5CCCCC5=O)c4)c4ccccc43)[C@@H]2C)cc1 | HSkMC | inactive |
| O=C(N[C@H]1CC=CC[C@H](CC(=O)N(CCO)Cc2ccccc2)C(=O)N[C@H](Cc2ccccc2)COC1=O)OCC1c2ccccc2-c2ccccc21 | HSkMC | inactive |
| O=C(N[C@@H]1CC=CC[C@H](CC(=O)N(CCO)Cc2ccccc2)C(=O)N[C@@H](Cc2ccccc2)COC1=O)OCC1c2ccccc2-c2ccccc21 | HSkMC | inactive |
| C[C@@H]1CN([C@@H](C)CO)C(=O)c2cc(C#Cc3ccccc3F)cnc2O[C@@H]1CN(C)C(=O)Cc1ccncc1 | HSkMC | inactive |
| O=C(C[C@@H]1CC=CC[C@@H](NC(=O)OCC2c3ccccc3-c3ccccc32)C(=O)OC[C@@H](Cc2ccccc2)NC1=O)N[C@@H](CO)Cc1ccccc1 | HSkMC | inactive |
| C[C@@H]1CCCCO[C@H](CN(C)C(=O)c2ccncc2)[C@H](C)CN([C@@H](C)CO)C(=O)c2cc(NC(=O)C3CCCCC3)ccc2O1 | HSkMC | inactive |

###

# Tested on: HSkMC
# ASSAY DETAILS: cytotoxicity call (relative viability < 0.9)
# ASSAY CONDITIONS: 10 µM
In all, about 39,000 compounds went through this assay and about 1,500 (3.8%) were called active. The sample as a whole holds a higher share of actives than the screen did.
Possible outcomes: active, inactive

| SMILES CODE | CLASS ASSIGNMENT |
| --- | --- |
| Nc1ncnc2c1ncn2[C@H]1C[C@H](O)[C@@H](CO)O1 | inactive |
| Nc1nc(Cl)nc2c1ncn2[C@H]1C[C@@H](O)[C@@H](CO)O1 | inactive |
| C=CCC[C@@H](Cc1ccc(F)cc1)C(=O)O[C@H](CNC(=O)[C@@H](CC=C)CC(=O)N(CCO)Cc1ccccc1)c1ccccc1 | active |
| C=CC(=O)N[C@@H]1c2ccccc2C[C@@H]1O | inactive |
| C=CCC[C@H](Cc1ccc(F)cc1)C(=O)O[C@@H](CNC(=O)[C@@H](CC=C)CC(=O)N(CCO)Cc1ccccc1)c1ccccc1 | active |
| COc1ccc(S(=O)(=O)Nc2cccc3c2O[C@@H](CN(C)C(=O)Nc2c(C)noc2C)[C@@H](C)CN([C@H](C)CO)C3=O)cc1 | inactive |
| C=CCC[C@@H](Cc1ccc(F)cc1)C(=O)O[C@@H](CNC(=O)[C@H](CC=C)CC(=O)N(CCO)Cc1ccccc1)c1ccccc1 | active |
| O=C(NO)c1cn(-c2ccc(C[C@H]3C(=O)O[C@@H](Cc4ccccc4)[C@H]4[C@@H]5C=CCCC=C5CN43)cc2)nn1 | inactive |

###

# System: HSkMC (human skeletal muscle cells)
# ASSAY DETAILS: cytotoxicity call (relative viability < 0.9)
# ASSAY CONDITIONS: 10 µM
The whole screen tested about 39,000 compounds, of which about 1,500 (3.8%) were called active. This excerpt belongs to a sample that is enriched for actives.
Possible outcomes: true = active, false = inactive

| SMILES CODE | SYSTEM UNDER TEST | CLASS ASSIGNMENT |
| --- | --- | --- |
| COc1ccccc1C#Cc1ccc2c(c1)O[C@H](CN(C)Cc1cccnc1)[C@@H](C)CN([C@H](C)CO)S2(=O)=O | HSkMC | false |
| COc1ccccc1C#Cc1ccc2c(c1)O[C@H](CN(C)Cc1cccnc1)[C@H](C)CN([C@@H](C)CO)S2(=O)=O | HSkMC | false |
| COc1ccccc1C#Cc1ccc2c(c1)O[C@@H](CN(C)Cc1cccnc1)[C@@H](C)CN([C@H](C)CO)S2(=O)=O | HSkMC | false |
| COc1ccccc1C#Cc1ccc2c(c1)O[C@@H](CN(C)Cc1cccnc1)[C@H](C)CN([C@H](C)CO)S2(=O)=O | HSkMC | true |
